Assay: Cytotoxicity against human HepG2 cells assessed as viability at 10 uM after 72 hrs by MTT assay relative to control
Type: cell-based
Settings: read-out: Activity
quantity-measured: viability at 72 h, 10 µM (%)
Provide only the numeric value, understood in %.

Query: Item under review: COc1ccc2nc(C)cc(OCC(=O)Nc3ccc(C)c(C)c3)c2c1 . Reported viability at 72 h, 10 µM?
Response: 71

Query: Now give it for CCCCCc1ccc(NC(=O)COc2cc(C)nc3ccc(OC)cc23)cc1 too.
Response: 83

Query: Now give it for CCc1ccc(NC(=O)COc2cc(C)nc3ccc(OC)cc23)cc1 too.
Response: 75

Query: Now give it for CCCCc1ccc(NC(=O)COc2cc(C)nc3ccc(OC)cc23)cc1 too.
Response: 78

Query: Now give it for COc1ccc2nc(C)cc(OCC(=O)Nc3ccc(C)cc3)c2c1 too.
Response: 80

Query: Now give it for COc1ccc2nc(C)cc(OCC(=O)Nc3ccc4c(c3)CCC4)c2c1 too.
Response: 95

Query: Now give it for CCCc1ccc(NC(=O)COc2cc(C)nc3ccc(OC)cc23)cc1 too.
Response: 64

Query: Now give it for COc1ccc2nc(C)cc(OCC(=O)Nc3ccc4c(c3)CCCC4)c2c1 too.
Response: 85

====

Test: Intrinsic clearance in human liver S9 fraction at 2 uM by HPLC-MS/MS analysis
Format: ADME, tissue-based
quantity-measured: CLhep predicted at 2 µM (mL/min/kg)
Provide only the numeric value, understood in mL/min/kg.

Below: 5 compounds and their reported CLhep predicted at 2 µM.
Query: Item under review: COc1ccc2nc(C)cc(OCC(=O)Nc3ccc(C)cc3)c2c1 . Reported CLhep predicted at 2 µM?
Response: 13.5

Query: Now give it for COc1ccc2nc(C)cc(OCC(=O)Nc3ccc4c(c3)CCC4)c2c1 too.
Response: 16.9

Query: Now give it for COc1ccc2nc(C)cc(OCC(=O)Nc3ccc(C)c(C)c3)c2c1 too.
Response: 16.2

Query: Now give it for COc1ccc2nc(C)cc(OCC(=O)Nc3ccc4c(c3)CCCC4)c2c1 too.
Response: 15.6

Query: Now give it for CCc1ccc(NC(=O)COc2cc(C)nc3ccc(OC)cc23)cc1 too.
Response: 16.6

Others:
Query: Item under review: CCCCc1ccc(NC(=O)COc2cc(C)nc3ccc(OC)cc23)cc1 . Reported CLhep predicted at 2 µM?
Response: 16.3

Query: Now give it for CCCc1ccc(NC(=O)COc2cc(C)nc3ccc(OC)cc23)cc1 too.
Response: 12.7

Query: Now give it for CCCCCc1ccc(NC(=O)COc2cc(C)nc3ccc(OC)cc23)cc1 too.
Response: 14.8

====

Biological target: Cytochrome P450 2C19 (Homo sapiens, UniProt P33261)
Sequence (P33261 whole entry): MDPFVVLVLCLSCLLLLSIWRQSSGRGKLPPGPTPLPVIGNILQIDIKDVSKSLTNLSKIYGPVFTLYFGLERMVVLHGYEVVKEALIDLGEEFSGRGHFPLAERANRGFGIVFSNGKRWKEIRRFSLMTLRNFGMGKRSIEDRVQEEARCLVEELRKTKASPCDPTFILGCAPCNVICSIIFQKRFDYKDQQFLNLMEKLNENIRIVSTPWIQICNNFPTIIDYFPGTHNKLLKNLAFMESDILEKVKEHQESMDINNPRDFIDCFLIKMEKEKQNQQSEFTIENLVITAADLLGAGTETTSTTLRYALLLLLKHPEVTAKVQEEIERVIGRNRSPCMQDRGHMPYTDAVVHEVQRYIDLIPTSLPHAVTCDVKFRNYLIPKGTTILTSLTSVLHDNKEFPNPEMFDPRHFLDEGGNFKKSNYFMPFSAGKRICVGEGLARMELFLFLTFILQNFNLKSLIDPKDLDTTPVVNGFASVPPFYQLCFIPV
quantity-measured: IC50

Query: Item under review: CCCCCc1ccc(NC(=O)COc2cc(C)nc3ccc(OC)cc23)cc1 . Reported IC50?
Response: > 30 µM

====

Test: Kinetic solubility in water at pH 5.8
Assay type: physicochemical
Conditions: read-out: Kinetic_solubility
quantity-measured: solubility kinetic
Report as: number unit

Query: Item under review: COc1ccc2nc(C)cc(OCC(=O)Nc3ccc(C)cc3)c2c1 . Reported solubility kinetic?
Response: 17 µM

Query: Now give it for COc1ccc2nc(C)cc(OCC(=O)Nc3ccc4c(c3)CCCC4)c2c1 too.
Response: 6.6 µM

Query: Now give it for COc1ccc2nc(C)cc(OCC(=O)Nc3ccc(C)c(C)c3)c2c1 too.
Response: 10.4 µM

Query: Now give it for COc1ccc2nc(C)cc(OCC(=O)Nc3ccc4c(c3)CCC4)c2c1 too.
Response: 2.8 µM

Query: Now give it for CCc1ccc(NC(=O)COc2cc(C)nc3ccc(OC)cc23)cc1 too.
Response: 5.2 µM

Query: Now give it for CCCCCc1ccc(NC(=O)COc2cc(C)nc3ccc(OC)cc23)cc1 too.
Response: 2.6 µM

Others:
Query: Item under review: CCCCc1ccc(NC(=O)COc2cc(C)nc3ccc(OC)cc23)cc1 . Reported solubility kinetic?
Response: 2.2 µM

Query: Now give it for CCCc1ccc(NC(=O)COc2cc(C)nc3ccc(OC)cc23)cc1 too.
Response: 3.9 µM

====

List of solubility thermodynamic at 24 h values.
Test: Thermodynamic solubility of the compound in 0.1N HCl at pH 1.5 after 24 hrs by HPLC method
Assay type: physicochemical
Details: read-out: Therm_solubility
Provide only the numeric value, understood in µM.

Below: 4 compounds and their reported solubility thermodynamic at 24 h.
Query: Item under review: COc1ccc2nc(C)cc(OCC(=O)Nc3ccc(C)c(C)c3)c2c1 . Reported solubility thermodynamic at 24 h?
Response: 80

Query: Now give it for COc1ccc2nc(C)cc(OCC(=O)Nc3ccc4c(c3)CCC4)c2c1 too.
Response: 240

Query: Now give it for CCCCc1ccc(NC(=O)COc2cc(C)nc3ccc(OC)cc23)cc1 too.
Response: 240

Query: Now give it for COc1ccc2nc(C)cc(OCC(=O)Nc3ccc4c(c3)CCCC4)c2c1 too.
Response: 90

Others:
Query: Item under review: CCCCCc1ccc(NC(=O)COc2cc(C)nc3ccc(OC)cc23)cc1 . Reported solubility thermodynamic at 24 h?
Response: 30

Query: Now give it for CCCc1ccc(NC(=O)COc2cc(C)nc3ccc(OC)cc23)cc1 too.
Response: 260

Query: Now give it for CCc1ccc(NC(=O)COc2cc(C)nc3ccc(OC)cc23)cc1 too.
Response: 790

Query: Now give it for COc1ccc2nc(C)cc(OCC(=O)Nc3ccc(C)cc3)c2c1 too.
Response: 1200

====

List of viability at 72 h, 10 µM values.
Assay: Cytotoxicity against mouse RAW264.7 cells assessed as viability at 10 uM after 72 hrs by MTT assay relative to control
Format: cell-based
Conditions: read-out: Activity
Provide only the numeric value, understood in %.

Below: 7 compounds and their reported viability at 72 h, 10 µM.
Query: Item under review: CCCc1ccc(NC(=O)COc2cc(C)nc3ccc(OC)cc23)cc1 . Reported viability at 72 h, 10 µM?
Response: 83

Query: Now give it for CCCCc1ccc(NC(=O)COc2cc(C)nc3ccc(OC)cc23)cc1 too.
Response: 91

Query: Now give it for COc1ccc2nc(C)cc(OCC(=O)Nc3ccc4c(c3)CCCC4)c2c1 too.
Response: 82

Query: Now give it for COc1ccc2nc(C)cc(OCC(=O)Nc3ccc(C)cc3)c2c1 too.
Response: 92

Query: Now give it for COc1ccc2nc(C)cc(OCC(=O)Nc3ccc(C)c(C)c3)c2c1 too.
Response: 88

Query: Now give it for CCc1ccc(NC(=O)COc2cc(C)nc3ccc(OC)cc23)cc1 too.
Response: 91

Query: Now give it for CCCCCc1ccc(NC(=O)COc2cc(C)nc3ccc(OC)cc23)cc1 too.
Response: 86

Pending compound:
Query: Item under review: COc1ccc2nc(C)cc(OCC(=O)Nc3ccc4c(c3)CCC4)c2c1 . Reported viability at 72 h, 10 µM?
Response: 88
